test: recombinant UMI read abundance after kanamycin selection (control-corrected) (log10(CPM+1)); higher = more efficient recombination; extreme values may be limits of the assay; sequences stand for … in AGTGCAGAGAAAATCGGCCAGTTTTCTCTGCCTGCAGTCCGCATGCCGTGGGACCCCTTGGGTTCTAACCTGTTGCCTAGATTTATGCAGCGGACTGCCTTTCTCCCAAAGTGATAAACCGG…AGGTTGGTTTCACT; site = the 11-nt donor;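 also: IS621 bridge recombinase in Escherichia coli cells against a fixed T5 target plasmid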
The following sequences are shown together with reported recombinant UMI read abundance (log10) values.
Give only the figure.

CGAAATTCATGGACCGGTTTTCCCGGTAATCCGTATTTGTT (site CGAAATTCTAA) : 0.945

[Q] Item under review: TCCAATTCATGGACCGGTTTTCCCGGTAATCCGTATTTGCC (site ACCAATTCTGG) . Reported recombinant UMI read abundance (log10)?
[A] 0

[Q] I'd like to know its recombinant UMI read abundance (log10). The sequence in question is TAGAATACATGGACCGGTTTTCCCGGTAATCCGTATTTGTA (site TAGAATACTTA)
[A] 1.55
